- ASSAY EXPLANATION: clinical
- RUN CONDITIONS: human, in vivo, po
ENDPOINT: bioavailability

- MOLECULE: "N[C@@H]1c2cccnc2[C@H](OC(=O)N2CCC(n3c(=O)[nH]c4ncccc43)CC2)CC[C@H]1c1cccc(F)c1F [rimegepant]"
  RECORDED MEASUREMENT: "~64%"

----------
- ASSAY EXPLANATION: clinical
- RUN CONDITIONS: human, in vivo
ENDPOINT: half-life

- TEST SMILES: "N[C@@H]1c2cccnc2[C@H](OC(=O)N2CCC(n3c(=O)[nH]c4ncccc43)CC2)CC[C@H]1c1cccc(F)c1F"
  ENDPOINT: "half-life"
  RECORDED MEASUREMENT: "~11 h"
